Values compiled from patent US20040048790A1.

- tested.system: HLA-A*1101 (human)
- experiment.description: 125I-probe peptide inhibition, purified HLA
- condition.set: remark: other sources report otherwise
Non-standard residues stand in square brackets, D forms with d. No end group written: not given here. Abu = CC[C@H](N)C(=O)O
Please respond with reported pIC50 for every item in the list.
Numbers only, as −log10 of the molar value.

SV[Abu]MGGMNRK [p53.240.V2B3K10] | 7.12

# map each binder to its pIC50
1. SSCMGGMNRR [p53.240 (10-mer …)]
2. BVYSPALNK (here or on the partner: B at position 1 = alpha-amino butyric acid (in place of Cys)) [p53.124.B1V2]
3. KMFCQLAK [p53.132 (8-mer)]
4. SSCMGGMNR [p53.240 (9-mer …)]
5. SV[Abu]MGGMNK [p53.240.V2B3K9]

Completion:
[7.15, 7.89, 7.77, 8.37, 7.77]

# map each binder to its pIC50
1. KVYQGSYGFR [p53.101.V2]
2. KVYQGSYGFK [p53.101.V2K10]

Completion:
[7.21, 8.04]

# map each binder to its pIC50
1. KTYQGSYGFK [p53.101 (10-mer …)]
2. CTYSPALNK [p53.124]

Completion:
7.85
8.22
